Listed below: SIF values for each entry.
- protocol_notes: Stability in Simulated Intestinal Fluid (SIF)
- Format: in vitro ADME
- Set-up: key: % parent compound remaining relative to 0-minute sample
- test_context: % remaining at 1 h in simulated intestinal fluid
Only the number, expressed in % remaining, is required.

- compound: "CC(C)OCCn1c(=S)[nH]c(=O)c2c1ccn2COC(=O)CCNC(=O)[C@H](Cc1c[nH]c2ccccc12)NC(=O)OC(C)(C)C.O=C(O)C(F)(F)F"
  SIF / % remaining: 89
- compound: "CSCC[C@H](N)C(=O)NCCCCC(=O)OCn1ccc2c1c(=O)[nH]c(=S)n2CCOC(C)C.O=C(O)C(F)(F)F"
  SIF / % remaining: 85
- compound: "CC(C)C[C@H](NC(=O)OC(C)(C)C)C(=O)NCCCCC(=O)OCn1ccc2c1c(=O)[nH]c(=S)n2CCOC(C)C"
  SIF / % remaining: 66
- compound: "CC(C)OCCn1c(=S)[nH]c(=O)c2c1ccn2COC(=O)CCNC(=O)[C@@H](N)CO.O=C(O)C(F)(F)F"
  SIF / % remaining: 1
- compound: "CC(C)OCCn1c(=S)[nH]c(=O)c2c1ccn2COC(=O)CCCCNC(=O)CNC(=O)OC(C)(C)C"
  SIF / % remaining: 94
- compound: "CC(C)OCCn1c(=S)[nH]c(=O)c2c1ccn2COC(=O)CCNC(=O)[C@@H](N)[C@@H](C)O.O=C(O)C(F)(F)F"
  SIF / % remaining: 86
- compound: "CC(C)OCCn1c(=S)[nH]c(=O)c2c1ccn2COC(=O)CCNC(=O)CN(C)C(=O)CNC(=O)OC(C)(C)C.O=C(O)C(F)(F)F"
  SIF / % remaining: 84
- compound: "CC(C)OCCn1c(=S)[nH]c(=O)c2c1ccn2COC(=O)CCCCNC(=O)[C@@H](N)Cc1ccc(O)cc1.O=C(O)C(F)(F)F"
  SIF / % remaining: 92

So, COC(=O)N1CCCC1C(=O)NCCC(=O)OCn1ccc2c1c(=O)[nH]c(=S)n2CCOC(C)C.O=C(O)C(F)(F)F (stereo not shown) ? Its SIF was 88

The measured SIF associated with CC(C)OCCn1c(=S)[nH]c(=O)c2c1ccn2COC(=O)CCNC(=O)[C@@H](N)CCc1ccccc1.O=C(O)C(F)(F)F reads 43

For reference, reported SIF for CC(C)OCCn1c(=S)[nH]c(=O)c2c1ccn2COC(=O)CCNC(=O)C1CCCN1C(=O)OC(C)C.O=C(O)C(F)(F)F (stereo not shown) stands at 69

In plain terms, CC(C)OCCn1c(=S)[nH]c(=O)c2c1ccn2COC(=O)CCCCNC(=O)[C@@H](N)CCc1ccccc1.O=C(O)C(F)(F)F has a documented SIF of 76

###

- protocol_notes: Stability in Simulated Gastric Fluid (SGF)
- Format: in vitro ADME
- Parameters: key: % parent compound remaining relative to 0-minute sample
- test_context: % remaining @ 1 h
experimental_readout: SGF (% @ 1 h)
// note: answer is a bare numeric in % @ 1 h

- test_smiles: "CC(C)OCCn1c(SCOC(=O)[C@@H](N)Cc2ccccc2)nc(=O)c2[nH]ccc21.O=C(O)C(F)(F)F"
  endpoint_unit: "% @ 1 h"
  SGF: 99

Noted for CC(C)OCCn1c(=S)[nH]c(=O)c2c1ccn2COC(=O)[C@@H](NC(=O)OC(C)(C)C)C(C)C : its SGF reads 98

Consider CC(C)OCCn1c(=S)n(COC(=O)[C@H](Cc2ccccc2)NC(=O)OC(C)(C)C)c(=O)c2c1ccn2COC(=O)[C@H](Cc1ccccc1)NC(=O)OC(C)(C)C . Its measured SGF is 44

Reported SGF of CC(C)OCCn1c(SCOC(=O)[C@H](N)Cc2ccccc2)nc(=O)c2c1ccn2COC(=O)[C@H](N)Cc1ccccc1.O=C(O)C(F)(F)F.O=C(O)C(F)(F)F : 99

###

Below, each entry is listed alongside its reported SGF.
- protocol_notes: Stability in Simulated Gastric Fluid (SGF)
- Type: in vitro ADME
- Parameters: key: % parent compound remaining relative to 0-minute sample
- test_context: % remaining @ 1 h
# value in % @ 1 h; strip the unit string

- test_smiles: "CC(C)OCCn1c(=S)[nH]c(=O)c2c1ccn2COC(=O)[C@H](Cc1ccccc1)NC(=O)OC(C)(C)C"
  number: 97
- test_smiles: "CC(C)OCCn1c(SCOC(=O)[C@H](Cc2ccccc2)NC(=O)OC(C)(C)C)nc(=O)c2c1ccn2COC(=O)[C@H](Cc1ccccc1)NC(=O)OC(C)(C)C"
  number: 46
- test_smiles: "CC(C)OCCn1c(=S)n(COC(=O)[C@H](C)N)c(=O)c2c1ccn2CO.O=C(O)C(F)(F)F"
  number: 98
- test_smiles: "CC(C)OCCn1c(=S)n(COC(=O)[C@H](N)C(C)C)c(=O)c2c1ccn2COC(=O)[C@H](N)C(C)C.O=C(O)C(F)(F)F.O=C(O)C(F)(F)F"
  number: 97
- test_smiles: "CC(C)OCCn1c(=S)n(COC(=O)CCCCOC(=O)CN)c(=O)c2c1ccn2COC(=O)CCCCOC(=O)CN.O=C(O)C(F)(F)F.O=C(O)C(F)(F)F"
  number: 91
- test_smiles: "CC(C)OCCn1c(SCOC(=O)[C@@H](NC(=O)OC(C)(C)C)C(C)C)nc(=O)c2c1ccn2COC(=O)[C@@H](NC(=O)OC(C)(C)C)C(C)C"
  number: 58

Reported SGF for CC(C)OCCn1c(SCOC(=O)[C@@H](N)Cc2ccccc2)nc(=O)c2c1ccn2COC(=O)[C@@H](N)Cc1ccccc1.O=C(O)C(F)(F)F.O=C(O)C(F)(F)F was 98

###

SGF listing for selected compounds.
- protocol_notes: Stability in Simulated Gastric Fluid (SGF)
- Type: in vitro ADME
- Parameters: key: % parent compound remaining relative to 0-minute sample
- test_context: simulated gastric fluid, remaining at 1 h
Report the figure in % remaining without appending any unit label.

Here is how some compounds turned out for SGF.
- compound: "CC(C)OCCn1c(SCOC(=O)OCCOCCNC(=O)OC(C)(C)C)nc(=O)c2[nH]ccc21 [Example 369]"
  SGF (% remaining): 89
- compound: "CC(C)C[C@@H](N)C(=O)OCCCCC(=O)OCn1ccc2c1c(=O)[nH]c(=S)n2CCOC(C)C.O=C(O)C(F)(F)F [Example 350]"
  SGF (% remaining): 29
- compound: "CC(C)OCCn1c(=S)[nH]c(=O)c2c1ccn2COC(=O)OCCOCCN.O=C(O)C(F)(F)F [Example 354]"
  SGF (% remaining): 99
- compound: "CC(C)OCCn1c(=S)n(COC(=O)CCCOC(=O)[C@@H](Cc2ccccc2)NC(=O)OC(C)(C)C)c(=O)c2c1ccn2COC(=O)CCCOC(=O)[C@@H](Cc1ccccc1)NC(=O)OC(C)(C)C [Example 365]"
  SGF (% remaining): 85
- compound: "CC(C)OCCn1c(SCOC(=O)CCCOC(=O)[C@H](N)Cc2ccccc2)nc(=O)c2c1ccn2COC(=O)CCCOC(=O)[C@H](N)Cc1ccccc1.O=C(O)C(F)(F)F.O=C(O)C(F)(F)F [Example 364]"
  SGF (% remaining): 47

Lab book: SGF of CC(C)OCCn1c(=S)[nH]c(=O)c2c1ccn2COC(=O)CCCOC(=O)[C@H](N)C(C)C [Example 356] noted as 99

// field: SGF; key: CC(C)OCCn1c(=S)[nH]c(=O)c2c1ccn2COC(=O)CCCOC(=O)[C@H](N)Cc1ccccc1.O=C(O)C(F)(F)F [Example 362] ; value = 90

Given item CSCC[C@@H](NC(=O)OC(C)(C)C)C(=O)NCCOCCOC(=O)OCn1ccc2c1c(=O)[nH]c(=S)n2CCOC(C)C [Example 389] , the value recorded as its SGF is 98

# compound CC(C)OCCn1c(SCOC(=O)N(C)CCOCCN)nc(=O)c2c1ccn2COC(=O)N(C)CCOCCN.O=C(O)C(F)(F)F.O=C(O)C(F)(F)F [Example 382] ; its SGF = 100

Lookup result for CC(C)OCCn1c(=S)n(COC(=O)CCCOC(=O)[C@H](NC(=O)OC(C)(C)C)C(C)C)c(=O)c2c1ccn2COC(=O)CCCOC(=O)[C@H](NC(=O)OC(C)(C)C)C(C)C [Example 359] ; measured SGF: 99

Documented SGF of CC(C)OCCn1c(=S)[nH]c(=O)c2c1ccn2COC(=O)CCCOC(=O)[C@@H](Cc1ccccc1)NC(=O)OC(C)(C)C [Example 361] : 95

Entry CSCC[C@H](NC(=O)OC(C)(C)C)C(=O)OCCCCC(=O)OCn1ccc2c1c(=O)[nH]c(=S)n2CCOC(C)C [Example 352] ; SGF = 92

###

Below, each of the compounds is paired with its reported human Plasma stability value.
- protocol_notes: Plasma Stability
- Format: in vitro ADME, human
- test_context: % remaining at 1 h in human plasma
Entry rule: numbers only, all in % remaining.

- compound: "CC[C@H](C)[C@H](N)C(=O)NCCCCC(=O)OCn1ccc2c1c(=O)[nH]c(=S)n2CCOC(C)C.O=C(O)C(F)(F)F"
  human Plasma stability, % remaining: 1
- compound: "CC(C)OCCn1c(=S)[nH]c(=O)c2c1ccn2COC(=O)CCCCNC(=O)CNC(=O)OC(C)(C)C"
  human Plasma stability, % remaining: 1
- compound: "CC(C)OCCn1c(=S)[nH]c(=O)c2c1ccn2COC(=O)CCNC(=O)[C@H](CCc1ccccc1)NC(=O)OC(C)(C)C.O=C(O)C(F)(F)F"
  human Plasma stability, % remaining: 42

# compound CNCC(=O)NCCCCC(=O)OCn1ccc2c1c(=O)[nH]c(=S)n2CCOC(C)C.O=C(O)C(F)(F)F ; its human Plasma stability = 1

The recorded human Plasma stability for CC(C)OCCn1c(=S)n(COC(=O)OCCOCCNC(=O)OC(C)(C)C)c(=O)c2c1ccn2COC(=O)OCCOCCNC(=O)OC(C)(C)C is 50

Entry source: patent US20240067651A1
